Catalogue of cell viability values
test system: NCI-H2228 alectinib-DTP; assay: cell viability relative to vehicle (fraction of vehicle); higher = less growth inhibition; details: 100 nM; treatment time 6 days
In all, about 2,800 compounds were measured (“cell viability relative to vehicle”: median about 0.98, lowest 2% from about 0.45 on). The list comes from a sample in which the lowest values are over-represented; it also holds close analogues and randomly drawn compounds.

Memo: CCc1nc2c(C)cc(N3CCN(CC(=O)N4CC(O)C4)CC3)cn2c1N(C)c1nc(-c2ccc(F)cc2)c(C#N)s1 , reported cell viability: 1.02

###

system: NCI-H2228 alectinib-DTP; assay: cell viability relative to vehicle (fraction of vehicle); higher = less growth inhibition; details: 100 nM; treatment time 6 days
In all, about 2,800 compounds were measured (“cell viability relative to vehicle”: median about 0.98, lowest 2% from about 0.45 on). The sample holds the lowest values, similar compounds and a random draw of the others, so the mix is not that of the screen.
Measurement type: cell viability
Would you mind answering with just the numeric figure?

C[C@@H]1CC[C@]2(C(=O)O)CC[C@]3(C)C(=CC[C@@H]4[C@@]5(C)CC[C@H](O)[C@@](C)(CO)[C@@H]5CC[C@]43C)[C@@H]2[C@]1(C)O :: 1.02
COC(=O)c1ccc([C@H]2c3[nH]c4ccccc4c3C[C@H](C(=O)OC)N2C(=O)CCl)cc1 :: 0.0417
CS(=O)(=O)Nc1ccc([N+](=O)[O-])cc1OC1CCCCC1 :: 1.12
O=C(/C=C/c1cccnc1)NCCCCC1CCN(C(=O)c2ccccc2)CC1 :: 0.452

The compound listed as CCCNC(=O)c1cn2ncnc(Nc3cc(C(=O)NC4CC4)ccc3C)c2c1C has a reported cell viability of 1.03

// N#Cc1c(-c2ccccc2)cc(-c2cc(Br)ccc2O)[nH]c1=O : cell viability value = 0.907

Summary for this compound, COc1cc2cc(Oc3ccc4ccc(=O)oc4c3)c(=O)oc2cc1O : cell viability is 1.11

So for CCCC[S+]([O-])c1sc2nc(-c3cccs3)cc(-c3ccccc3)c2c1N (stereo unspecified) , the logged cell viability turned out to be 1

###

system: NCI-H2228 alectinib-DTP; assay: cell viability relative to vehicle (fraction of vehicle); higher = less growth inhibition; conditions: 100 nM; treatment time 6 days
In all, about 2,800 compounds were measured (“cell viability relative to vehicle”: median about 0.98, lowest 2% from about 0.45 on). Many of the other results were omitted from the sample, so the lowest values are more common in it than they were.
A collection of compounds and their measured cell viability
Provide a numeric answer; units are not to be included.

Solved entries (count: 3):
Cc1nc2cccc(N)c2c(=O)n1C1CCC(=O)NC1=O (centres undefined) [Avadomide] :: 0.982
N#Cc1cc2cc(CN3CCC(Nc4ncnc5sc(CC(F)(F)F)cc45)CC3)ccc2[nH]1 :: 1.04
Oc1cc(-c2nc(-c3ccccc3)[nH]c2-c2ccncc2)ccc1Cl :: 1.22

Okay, next one:
cell viability reported for this compound CC(=O)O[C@@H]1C[C@H](O)[C@@]23CO[C@@H](O)[C@]1(C)[C@@H]2C[C@@H](O)[C@]1(C)[C@@H]3C(=O)[C@H](OC(C)=O)[C@@]2(C)[C@H](c3ccoc3)C[C@H]3O[C@]321 : 0.408

###

test system: NCI-H2228 alectinib-DTP; test: cell viability relative to vehicle (fraction of vehicle); NCI-H2228 is an ALK-positive lung cancer line and DTP means drug-tolerant persister; higher = less growth inhibition; conditions: 100 nM; treatment time 6 days
Whole data set: some 2,800 compounds, median “cell viability relative to vehicle” near 0.98, cut for the lowest 2% near 0.45. The entries come from a sample that favours the lowest values as a whole.
Entries whose cell viability is below 0.9 take Y; entries at or above 0.9 take N.

Known results for compounds:
Cn1nccc1Nc1nccc(-c2cc3c(s2)C(C)(C)N(CCN2CCOCC2)C3=O)n1 :: N
CN1CCN(c2ccc(-c3ccncc3-c3cc(F)c(O)c(F)c3)cc2)CC1 :: N
NC(=O)c1nc(-c2c(F)cccc2Cl)oc1Nc1ccc(C(=O)N2CCOCC2)cc1 :: N

Please find the next compound below.
cell viability strictly < 0.9 for this compound? COc1ccc(CNc2nc(N3CCC[C@H]3CO)ncc2C(=O)NCc2ncccn2)cc1Cl
N
